Answer each item with its documented IC50.
Target: 5HT3a receptor expressed in HEK-293T cells (Homo sapiens (Human), UniProt P46098)
Sequence (P46098 24-478): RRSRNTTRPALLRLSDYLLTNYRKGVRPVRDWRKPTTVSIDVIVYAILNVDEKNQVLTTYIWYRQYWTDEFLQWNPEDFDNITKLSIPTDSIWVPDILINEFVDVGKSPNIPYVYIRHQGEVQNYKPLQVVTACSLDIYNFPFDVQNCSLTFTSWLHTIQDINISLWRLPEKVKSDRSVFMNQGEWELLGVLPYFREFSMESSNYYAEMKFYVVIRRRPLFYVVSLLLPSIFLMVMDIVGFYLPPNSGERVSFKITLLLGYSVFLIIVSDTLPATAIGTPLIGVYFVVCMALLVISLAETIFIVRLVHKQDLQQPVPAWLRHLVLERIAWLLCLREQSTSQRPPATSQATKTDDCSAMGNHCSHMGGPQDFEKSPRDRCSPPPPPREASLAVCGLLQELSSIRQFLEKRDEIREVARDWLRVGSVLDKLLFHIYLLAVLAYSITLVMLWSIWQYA
Experiment: Inhibition of Ca flux activity of 5HT3 in vitro assay
Conditions: calcium flux, 5HT 216 nM, approximate values
Structures can show the parent of a compound that is named as a salt.
Answers are plain numbers, in nM.

Field: example entries. Status: answers known.
CN1C2COCC1CC(NC(=O)c1cn(-c3cscn3)c3ncc(F)cc13)C2 (stereo not shown) [Example 163, trifluoroacetic acid salt] : 1.81
CN1[C@@H]2COC[C@H]1CC(NC(=O)c1cn(CC(C)(F)F)c3ncccc13)C2 (stereo partly shown) : 1.05
CN1[C@@H]2CCC[C@H]1CC(NC(=O)c1cn(CC(F)F)c3ccc(F)cc13)C2 (stereo partly shown) : 5.45

# map each compound to its IC50
1. CN1[C@@H]2COC[C@H]1CC(OC(=O)c1cn(S(C)(=O)=O)c3ccc(F)cc13)C2 (stereo partly shown)
2. CN1C2COCC1CC(NC(=O)c1cn(C(C)(C)C(F)(F)F)c3ncccc13)C2 (stereo not shown)
3. CC(C)S(=O)(=O)n1cc(C(=O)OC2C[C@H]3COC[C@@H](C2)N3)c2cc(F)ccc21 (stereo partly shown)
4. CN1C2COCC1CC(NC(=O)c1cn(CC(F)(F)F)c3ccc(F)cc13)C2 (stereo not shown)

Solution:
1. 0.29
2. 1.06
3. 5.61
4. 0.54
